# targetOrTestSystem: HLA-B*08:01
# assayProcedure: IEDB peptide-MHC binding, purified MHC/direct/fluorescence; filed as Kd, often an IC50 or EC50 that approximates it; bounds were set here for any values at or beyond the usual limits of such assays
# conditionContext: source organism: Escherichia coli O157:H7
measurementLabel: Kd

Using the record for "VTRQIHNPR" , report its Kd. ≥ 20 µM

====

# targetOrTestSystem: HLA-A*02:01
# assayProcedure: IEDB peptide-MHC binding, purified MHC/direct/fluorescence; filed as Kd, often an IC50 or EC50 that approximates it; bounds were set here for any values at or beyond the usual limits of such assays
# conditionContext: source organism: Influenza A virus (A/quail/Hong Kong/FY298/00(H9N2))
pKd: −log10 of the molar value.
measurementLabel: pKd

# get_value(readout='pKd', item= "SYLIRALTL" ) ≤ 4.70
